Source listed as ChEMBL document CHEMBL6177957.

Molecular target: Bromodomain-containing protein 4 (Homo sapiens, UniProt O60885)
Test: Binding affinity to BRD4 BD1 (unknown origin) assessed as dissociation constant by BROMOscan analysis
METRIC: Kd

>>> result("CCn1c2c(c(=O)[nH]c1=O)C(c1ccc(C)cc1)C(C(=O)OCc1ccccc1)=C(C)N2 (stereo unspecified)")
"380 nM"

###

Molecular target: Bromodomain testis-specific protein (Homo sapiens, UniProt Q58F21)
Assay: Binding affinity to N-terminal hexa histidine-tagged human BRDT BD1 extracted from Escherichia coli BL21 (DE3) cells assessed as inhibition constant incubated for 1 hrs by fluorescence polarization assay
METRIC: log10 of Ki (log10 of the value in µM)

>>> result_number("CCn1c2c(c(=O)[nH]c1=O)C1C(=C(C)N2)C(=O)OCCCOc2cc(C)ccc21 (centres undefined)")
0.91
>>> result_number("CCn1c2c(c(=O)[nH]c1=O)C1C(=C(C)N2)C(=O)OCc2ccccc2OCCCOc2cc(C)ccc21 (centres undefined)")
0.11
>>> result_number("CCn1c2c(c(=O)[nH]c1=O)C(c1ccc(C)cc1)C(C(=O)OCc1ccccc1)=C(C)N2 (centres undefined)")
-1.40
>>> result_number("CCn1c2c(c(=O)[nH]c1=O)C1C(=C(C)N2)C(=O)OCc2ccccc2OCCCOc2ccccc21 (centres undefined)")
0.04
>>> result_number("CCn1c2c(c(=O)[nH]c1=O)C1C(=C(C)N2)C(=O)OCCCOc2ccccc21 (centres undefined)")
0.96
>>> result_number("CCn1c2c(c(=O)[nH]c1=O)C1C(=C(C)N2)C(=O)OCCCCOc2ccccc21 (centres undefined)")
1.04
>>> result_number("CCn1c2c(c(=O)[nH]c1=O)C1C(=C(C)N2)C(=O)OCc2ccccc2OCCCCOc2ccccc21 (centres undefined)")
0.28
>>> result_number("CCn1c2c(c(=O)[nH]c1=O)C1C(=C(C)N2)C(=O)OCc2ccccc2OCCOc2ccccc21 (centres undefined)")
0.72
>>> result_number("CCn1c2c(c(=O)[nH]c1=O)C1C(=C(C)N2)C(=O)OCc2ccccc2OCCCOc2cc1ccc2C (centres undefined)")
1.08
>>> result_number("CCn1c2c(c(=O)[nH]c1=O)C1C(=C(C)N2)C(=O)OCCCCOc2cc(C)ccc21 (centres undefined)")
0.23
